Numbers sourced from PubChem BioAssay AID1159580.

Assay: chemical genetic growth profiling, strain panel (AID 1159580);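 also: tested at 20 µM; growth read once vehicle control cultures reached saturation at 30 °C; 1 = growth at the plate median or of vehicle wells; lower values mean less growth of the strain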
Details: S. cerevisiae deletion strains, growth OD, locus YDL028C, strain MPS1, stronger effect = lower value
Hit rate of the full screen: of about 5,500 compounds, about 2,000 (36%) were called active. Roughly 18% stayed inconclusive and do not appear here. Some of the results follow.

# compound, normalized growth
records = [
    ("O=C(Nc1ccc(OC(F)(F)F)cc1)Nc1cncc(C(F)(F)F)c1", 0.991),
    ("C(=NC(N=Cc1ccccc1)c1ccccc1)c1ccccc1 (configuration not stated)", 0.984),
    ("O=C1CSC(=Nc2cc(Cl)cc(Cl)c2)N1Cc1cccnc1", 0.994),
    ("N#C/C(=C\\c1ccc(C(F)(F)F)cc1)c1ccc(O)cc1", 0.976),
    ("Cc1ccc(C(=O)Nc2ccc3ccccc3n2)cc1", 0.964),
    ("CCCCCc1ccc(S(=O)(=O)Nc2ncc(C)cc2Br)cc1", 0.953),
    ("FC(F)(F)c1ccc(NC(=S)Nc2ccc(C(F)(F)F)cc2Cl)c(Cl)c1", 0.952),
    ("CCOC(=O)C(NC(C)=O)(Nc1ccc(F)c(Cl)c1)C(F)(F)F (configuration not stated)", 0.995),
    ("Cc1c(Cl)cccc1N=C1SCC(=O)N1Cc1ccco1", 0.977),
    ("N#C/C(=C\\C=C\\c1ccccc1)c1nc2ccccc2[nH]1", 0.962),
    ("CCCCc1ccc(N=CNO)c(C)c1", 0.974),
    ("Cc1c(NCN2C(=O)CCC2=O)cc2c(c1[N+](=O)[O-])C(C)(C)CC2(C)C", 0.962),
]

---

Assay: chemical genetic growth profiling, strain panel (AID 1159580);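 also: tested at 20 µM; growth read once vehicle control cultures reached saturation at 30 °C; 1 = growth at the plate median or of vehicle wells; lower values mean less growth of the strain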
Details: S. cerevisiae deletion strains, growth OD, locus YNL128W, strain TEP1
In all, about 5,500 compounds went through this assay and about 2,000 (36%) were called active. About 18% were inconclusive and are not listed. Rule as the data show it: active = normalized growth mostly below about 0.91 (no sharp cut-off); inconclusive = no clear call, values can overlap the other calls; inactive = mostly above about 0.92. Some of the results follow.
Outcome codes: active, inactive

# molecule, class.assignment
rows = [
    ("C=C(C)c1cc2cc(C(C)=O)c(O)cc2o1", "inactive"),
    ("Fc1ccc(C(c2ccc(F)cc2)N2CCN(C/C=C/c3ccccc3)CC2)cc1", "inactive"),
    ("O=C(O)CNC(=O)C(CS)Cc1ccccc1 (stereo not given)", "inactive"),
    ("COc1ccc2c3c1O[C@H]1C(=O)CC[C@@]4(O)C(C2)N(CC2CC2)CCC314 (stereo not given in full)", "inactive"),
    ("COc1ccc2[nH]c(I)c(CCNC(C)=O)c2c1", "inactive"),
    ("COc1cc(O)c(C(C)=O)c(OC)c1", "inactive"),
    ("COc1ccc(/C=N\\NC(=O)CC#N)cc1OC", "inactive"),
    ("N#C/C(=C\\c1ccc(O)cc1)C(=O)O", "inactive"),
    ("CCN(CC)CCNC(=O)COc1ccc(OC)cc1", "inactive"),
    ("C[C@H]1C(=O)O[C@@H]2CCN3CC=C(COC(=O)[C@](C)(O)[C@]1(C)O)[C@H]23", "inactive"),
    ("CC(C)=CCOc1cc2oc(=O)ccc2cc1O", "inactive"),
    ("O=C1OC(=O)C2C3CCC(O3)C12 (stereo not given)", "inactive"),
    ("COc1cc(O)c(C(=O)c2ccccc2)c(OC)c1", "inactive"),
    ("Oc1ccc(C2CNCc3sccc32)cc1O (stereo not given)", "inactive"),
    ("CN1CCN(C(c2ccccc2)c2ccccc2)CC1", "inactive"),
    ("Fc1ccc(CN(C2=NCCN2)c2c(Cl)cccc2Cl)cc1", "inactive"),
    ("CC(C)(C)[C@]1(O)CCN2C[C@H]3c4ccccc4CCc4cccc(c43)[C@@H]2C1", "inactive"),
    ("CC(C)=CCc1c(O)cc2occ(-c3ccc4c(c3)OCO4)c(=O)c2c1O", "inactive"),
    ("COc1c(O)cc(O)cc1O", "inactive"),
    ("Cc1c2ccncc2c(C)c2c1[nH]c1ccccc12", "active"),
    ("CC(=O)N[C@@H](CC(=O)O)C(=O)O", "inactive"),
    ("O=[N+]([O-])/N=C1/NCCN1Cc1ccc(Cl)cc1", "inactive"),
    ("CSC(=Nc1ccc(C(C)C)cc1)NC#N", "inactive"),
    ("NNC(=S)Nc1cc(C(F)(F)F)ccc1Cl", "active"),
    ("c1coc(CNc2ncnc3nc[nH]c23)c1", "inactive"),
    ("S=c1nc(-c2ccccc2)[nH][nH]1", "inactive"),
    ("NC(=S)Nc1cc(Cl)ccc1Cl", "inactive"),
    ("O=c1ccc2cc(O[C@@H]3O[C@H](CO)[C@@H](O)[C@H](O)[C@H]3O)c(O)cc2o1", "inactive"),
    ("CC1(C)C[C@@H]2C(=O)CC[C@H]3O[C@]3(C)CC[C@H]21", "inactive"),
    ("Nc1ncnc2c1ncn2[C@@H]1O[C@H](CO)[C@@H](O)[C@@H]1O", "inactive"),
    ("CCCN(CCC)[C@H]1CCc2c(F)ccc(O)c2C1", "active"),
    ("COc1ccc2c(c1)[nH]c1c(C)nccc12", "inactive"),
    ("CC(C)=CCC1=C(O)c2ccccc2C(=O)C1=O", "inactive"),
    ("CCNc1nc(Cl)nc(NC(C)C)n1", "inactive"),
    ("CCS(=O)(=O)CCn1c([N+](=O)[O-])cnc1C", "inactive"),
]
